Experiment: qHTS RealTime-Glo MT Cell Viability Assay in HepG2 cells - 24 hour (AID 1224867); also: nearly all actives have a fitted effect of over 50% in size
Settings: RealTime-Glo luminescence; series mostly up to 76.8 µM
Records with an inconclusive call do not appear. Activity calls are given as the source filed them. Calls follow the shape of the dose curve; as a rule, active = well fitted cell-killing curve with a large enough effect in the repeat runs; inconclusive = weak or mixed curves; inactive = flat fitted curve, though single readings scatter.
The reply should name one outcome from yes = active, no = inactive

Worked examples, 4 compounds total:
| COMPOUND | CLASSIFICATION |
| --- | --- |
| Cc1ccc(CCl)cc1 | no |
| CC(C)(c1ccc(O)c(-c2ccccc2)c1)c1ccc(O)c(-c2ccccc2)c1 | yes |
| N#CCc1ccc(Cl)cc1 | no |
| C=CC(=O)N(C)C | no |

Turning to the following compound.
Query string: Recorded test call requested for CC1(C)[C@H](C(=O)O[C@H](C#N)c2cccc(Oc3ccccc3)c2)[C@@H]1/C=C(\Cl)C(F)(F)F
Result string: no
